Just for reference, ChEMBL document CHEMBL1147878 is where these values come from.

Listed here are compounds together with their documented MIC.
# Tested on: Nakaseomyces glabratus
# Measurement Description: Antifungal activity against Candida glabrata after 48 hrs by serial dilution method
# Format: functional
Reported Metric: MIC (µg/mL)

In [3]: df
Out[3]:
                                smiles_code             test_target  reported_metric  value_reported
0  O=C(Cc1ccc([N+](=O)[O-])cc1)Nc1ccc2oc(Cc3ccccc3)nc2c1  Nakaseomyces glabratus              MIC              25
1  O=C(CSc1ccccc1)Nc1ccc2oc(Cc3ccc(Cl)cc3)nc2c1  Nakaseomyces glabratus              MIC              50
2  Cc1ccc(C(=O)Nc2ccc3oc(Cc4ccc(Cl)cc4)nc3c2)cc1C  Nakaseomyces glabratus              MIC              50
3  CCc1ccc(C(=O)Nc2ccc3oc(Cc4ccccc4)nc3c2)cc1  Nakaseomyces glabratus              MIC            12.5
4  Cc1ccc(C(=O)Nc2ccc3oc(Cc4ccccc4)nc3c2)s1  Nakaseomyces glabratus              MIC            6.25
5  O=C(Nc1ccc2oc(Cc3ccccc3)nc2c1)c1ccc([N+](=O)[O-])cc1  Nakaseomyces glabratus              MIC            12.5
6  O=C(Nc1ccc2oc(Cc3ccccc3)nc2c1)c1ccc(F)cc1  Nakaseomyces glabratus              MIC              25
7  O=C(Cc1ccc(Cl)cc1)Nc1ccc2oc(Cc3ccc(Cl)cc3)nc2c1  Nakaseomyces glabratus              MIC            12.5
8  O=C(Cc1ccc(Br)cc1)Nc1ccc2oc(Cc3ccccc3)nc2c1  Nakaseomyces glabratus              MIC            3.12
9  O=C(Nc1ccc2oc(Cc3ccccc3)nc2c1)c1ccc(Br)cc1  Nakaseomyces glabratus              MIC              25

----------
# System: Nakaseomyces glabratus
# Measurement Description: Antifungal activity against Candida glabrata after 48 hrs by serial dilution method
# Assay type: functional

Compound	Quantity Unit	MIC
CN[C@@H]1[C@H](O[C@H]2[C@H](O[C@H]3[C@H](O)[C@@H](O)[C@H](N=C(N)N)[C@@H](O)[C@@H]3N=C(N)N)O[C@@H](C)[C@]2(O)C=O)O[C@@H](CO)[C@H](O)[C@H]1O (stereo in doubt) [STREPTOMYCIN]	µg/mL	13
Cc1ccc(CC(=O)Nc2ccc3oc(Cc4ccccc4)nc3c2)cc1	µg/mL	12.5
CC(C)(C)c1ccc(C(=O)Nc2ccc3oc(Cc4ccccc4)nc3c2)cc1	µg/mL	25
O=C(Cc1ccc([N+](=O)[O-])cc1)Nc1ccc2oc(Cc3ccc(Cl)cc3)nc2c1	µg/mL	25

----------
Listed here are compounds together with their documented MIC.
# Tested on: Nakaseomyces glabratus
# Measurement Description: Antifungal activity against Candida glabrata after 48 hrs by serial dilution method
# Type: functional
Reported Metric: MIC (µg/mL)

                                 smiles_code  value_reported
 0  O=C(Nc1ccc2oc(Cc3ccc(Cl)cc3)nc2c1)c1ccc([N+](=O)[O-])cc1              25
 1  O=C(Nc1ccc2oc(Cc3ccc(Cl)cc3)nc2c1)c1ccc(Cl)c([N+](=O)[O-])c1              25
 2  O=C(Nc1ccc2oc(Cc3ccccc3)nc2c1)c1ccc(Cl)c([N+](=O)[O-])c1            12.5
 3  O=C(Cc1ccc(Cl)cc1)Nc1ccc2oc(Cc3ccccc3)nc2c1              25
 4  CC(C)(C)c1ccc(C(=O)Nc2ccc3oc(Cc4ccc(Cl)cc4)nc3c2)cc1              50
 5  O=C(Cc1ccc(F)cc1)Nc1ccc2oc(Cc3ccccc3)nc2c1            12.5
 6  Cc1ccc(CC(=O)Nc2ccc3oc(Cc4ccc(Cl)cc4)nc3c2)cc1            12.5
 7    O=C(Nc1ccc2oc(Cc3ccccc3)nc2c1)c1ccccc1              25
 8  Cc1ccc(C)c(C(=O)Nc2ccc3oc(Cc4ccc(Cl)cc4)nc3c2)c1              25
 9  O=C(Nc1ccc2oc(Cc3ccc(Cl)cc3)nc2c1)c1ccc(F)cc1            12.5
10  O=C(Cc1ccc(Br)cc1)Nc1ccc2oc(Cc3ccc(Cl)cc3)nc2c1              50
11  Cc1ccc(C)c(C(=O)Nc2ccc3oc(Cc4ccccc4)nc3c2)c1              25
